# target.or.system: T1, IL-1beta (UniProt P01584 117-269)
# T1 construct: also called IL-1β
# assay: Biacore
outcome.measure: fold difference in affinity vs parental (fold)
Give a bare numeral; the unit fold is implied.

A selection of reference data follows.
| binder | fold difference in affinity vs parental / fold |
| --- | --- |
| XPA23 Fab, heavy chain D106K (Fab, V domains shown) VH: EVQLLESGGGLVQPGGSLRLSCAASGFTFSKYFMFWVRQAPGKGLEWVSVISPSGGMTRYADSVKGRFTISRDNSKNTLYLQMNSLRAEDTAVYYCARVGYGGNSKYWGQGTLVTVSS VL: DIQMTQSPSSVSASVGDRLTIICRASQDINRWLAWYQQTPGNAPKLLIHSATSLQSGVPSRFSGSGSGTDFTLTINSLQPEDFATYYCQQADSFPLTFGGGTKVEIK | 0.04 |
| XPA23 Fab, heavy chain G55N (Fab, V domains shown) VH: EVQLLESGGGLVQPGGSLRLSCAASGFTFSKYFMFWVRQAPGKGLEWVSVISPSNGMTRYADSVKGRFTISRDNSKNTLYLQMNSLRAEDTAVYYCARVGYGGNSDYWGQGTLVTVSS VL: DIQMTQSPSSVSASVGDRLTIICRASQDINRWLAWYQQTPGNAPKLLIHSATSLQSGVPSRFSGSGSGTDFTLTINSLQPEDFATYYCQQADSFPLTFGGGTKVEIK | 0.1 |

// moving on: another record for fold difference in affinity vs parental
Endpoint output: fold difference in affinity vs parental of XPA23 Fab, heavy chain G56K (Fab, V domains shown) VH: EVQLLESGGGLVQPGGSLRLSCAASGFTFSKYFMFWVRQAPGKGLEWVSVISPSGKMTRYADSVKGRFTISRDNSKNTLYLQMNSLRAEDTAVYYCARVGYGGNSDYWGQGTLVTVSS VL: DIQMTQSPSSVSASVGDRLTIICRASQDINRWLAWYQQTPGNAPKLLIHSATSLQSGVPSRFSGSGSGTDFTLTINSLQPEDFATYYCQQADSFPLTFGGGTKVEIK . Value?
2.05
